# EC50 listing for each entry below
- Test system: Rat whole blood (RWB)
- assayMethodText: LTB4 secretion assay in RWB (rat whole blood)
- Type: cell-based
- assayContext: Rattus norvegicus

[
  {
    "compound": "Cc1[nH]nc(Nc2ccc3nc(NCc4ccc(Oc5ccc(Cl)cn5)cc4)n(C)c3c2)c1Cl",
    "EC50": "< 10 µM"
  }
]

Req: Provide only the value of recorded EC50 for Nc1ccc2nc(N)n(Cc3ccc(Oc4ccc(OC(F)(F)F)cc4)cc3)c2c1
Resp: 10 to 20 µM

Req: Provide only the value of recorded EC50 for Cc1cc(Oc2ccc(Cl)cn2)ccc1CNc1nc2ccc(NC3COC3)cc2n1C
Resp: 10 to 20 µM

Req: Provide only the value of recorded EC50 for Cc1cc(Nc2ccc3nc(NCc4ccc(Oc5ncc(Cl)cn5)cc4)n(C)c3c2)nn1C
Resp: < 10 µM

Req: Provide only the value of recorded EC50 for CC(Nc1nc2cc(N)ccc2[nH]1)c1ccc(Cl)cc1Cl (stereo not shown)
Resp: 10 to 20 µM

Req: Provide only the value of recorded EC50 for CCC(Nc1nc2ccc(Nc3cc(C)[nH]n3)cc2n1C)c1ccc(Oc2ncc(Cl)cn2)cc1 (stereo not shown)
Resp: < 10 µM

Req: Provide only the value of recorded EC50 for CNc1nc2ccc(N3CCC(Oc4ccc(OC(F)(F)F)cc4)C3)cc2[nH]1 (stereo not shown)
Resp: > 20 µM
